# assay_notes: aggregation and purification amounts of deglycosylated antibodies, before and after φ
# Format: physicochemical
# cond: based on 100 ml culture
quantity_kind: Fraction3, After φ

Example cases with answers are listed next.
Deglyco-C3: deglycosylated clone 1 IgG; light chain CDR1 TGSSSNIGWSNVT (SEQ ID NO: 4) (antibody, V domains shown) VH: EVQLVESGGGLVQPGGSLRLSCAVSGFTFSGYDMSWIRQAPGKGLEWVAGIYPDGGNTYYADSVKGRFTISRDDSKNTFYLQMNSLRAEDTAVYYCARGATWWVLGPFDYWGQGTLVTVSS VL: DIQLTQSPSSLSASVGDRVTITCTGSSSNIGWSNVTWYQQKPGKAPKLLIYADSHRPSGVPSRFSGSGSGTDFTLTISSLQPEDFATYYCGAWDDSLSGYVFGQGTKVEIKR ... 0.520 mg
deglyco C1 IgG: deglycosylated clone 1 IgG; light chain CDR1 TGSSSNIGRCGVT (SEQ ID NO: 2), N32R/N33C/S34G (antibody, V domains shown) VH: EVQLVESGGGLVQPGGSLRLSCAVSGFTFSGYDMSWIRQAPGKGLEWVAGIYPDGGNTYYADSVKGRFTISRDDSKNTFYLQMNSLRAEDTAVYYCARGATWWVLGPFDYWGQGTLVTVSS VL: DIQLTQSPSSLSASVGDRVTITCTGSSSNIGRCGVTWYQQKPGKAPKLLIYADSHRPSGVPSRFSGSGSGTDFTLTISSLQPEDFATYYCGAWDDSLSGYVFGQGTKVEIKR ... 0.921 mg

Continue with the next molecule.
Quick one: Fraction3, After φ of Deglyco-C4: deglycosylated clone 1 IgG; light chain CDR1 TGSSSNIGAVVVT (SEQ ID NO: 5) (antibody, V domains shown) VH: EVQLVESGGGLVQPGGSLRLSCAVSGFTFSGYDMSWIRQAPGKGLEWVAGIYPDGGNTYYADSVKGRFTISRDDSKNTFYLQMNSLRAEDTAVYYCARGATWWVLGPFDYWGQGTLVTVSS VL: DIQLTQSPSSLSASVGDRVTITCTGSSSNIGAVVVTWYQQKPGKAPKLLIYADSHRPSGVPSRFSGSGSGTDFTLTISSLQPEDFATYYCGAWDDSLSGYVFGQGTKVEIKR ? 0.251 mg

Measured values drawn from patent US20190309074A1 for this set.
